Sourced from patent US11873298B2

Answer each item with its documented IC50.
- SYSTEM: SCD5 (Homo sapiens, UniProt Q86SK9)
- Construct: host or cells: S. cerevisiae ole1Δ strain (W303 pdr1Δ pdr3Δ background), plasmid pRS316 with TDH3 promoter and CYC1 terminator
- Sequence (Q86SK9 1-330): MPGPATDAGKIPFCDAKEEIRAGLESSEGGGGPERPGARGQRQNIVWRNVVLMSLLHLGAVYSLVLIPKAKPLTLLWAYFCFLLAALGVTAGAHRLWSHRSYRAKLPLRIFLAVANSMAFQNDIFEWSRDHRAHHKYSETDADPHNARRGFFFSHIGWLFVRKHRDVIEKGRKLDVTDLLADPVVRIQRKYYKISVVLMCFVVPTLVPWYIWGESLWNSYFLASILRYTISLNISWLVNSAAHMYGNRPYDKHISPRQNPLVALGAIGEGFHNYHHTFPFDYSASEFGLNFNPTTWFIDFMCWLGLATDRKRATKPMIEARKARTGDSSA
- METHOD: Growth inhibition of humanized yeast strain expressing SCD5 as sole desaturase
- Type: cell-based
- CONDITION_DETAILS: yeast strain expressing human SCD5 as sole desaturase; Table 8
Write the answer as a number in nM, unit excluded.

Asked: Quick check: IC50 of CC1(OC(=O)N2CCC(c3noc(N4CCc5cnn(C6COC6)c5C4)n3)CC2)CC1 [Compound 1224] ?
Given back: 60

Asked: Quick check: IC50 of O=C(C1CCC1)N1CCC(c2noc(-c3cc(C4CCOC4)ccn3)n2)CC1 (centres unmarked) [Compound 1285] ?
Given back: 900

Asked: Quick check: IC50 of CC(C)(C)OC(=O)N1CCC(c2noc(-c3ccc(C#N)c(N4CCOCC4)c3)n2)CC1 [Compound 1290] ?
Given back: 520

Asked: Quick check: IC50 of CC(C)(C)OC(=O)N1CCC(c2cc(-c3ccnc(C4CCOC4)n3)no2)CC1 (centres unmarked) [Compound 1202] ?
Given back: 7130

Asked: Quick check: IC50 of CCS(=O)(=O)N1CCC(c2noc(-c3ccc4cnn(C5COC5)c4c3)n2)CC1 [Compound 1216] ?
Given back: 330

Asked: Quick check: IC50 of CCC(=O)N1CCC(c2cc(-c3cc4c(cn3)cnn4C3COC3)on2)CC1 [Compound 1227] ?
Given back: 960

Asked: Quick check: IC50 of CC1(C(=O)N2CCC(c3cc(-c4cc5c(cn4)cnn5C4COC4)on3)CC2)CC1 [Compound 1237] ?
Given back: 70

Asked: Quick check: IC50 of Cn1cnc(-c2cc(-c3nc(C4CCN(C(=O)OC(C)(C)C)CC4)no3)ccn2)c1 [Compound 1294] ?
Given back: 190

###

Answer each item with its documented SCD1 % Max Inhibition.
- SYSTEM: SCD1 (Homo sapiens, UniProt O00767)
- Construct: host or cells: S. cerevisiae ole1Δ strain (W303 pdr1Δ pdr3Δ background), plasmid pRS316 with TDH3 promoter and CYC1 terminator
- Sequence (O00767 whole entry): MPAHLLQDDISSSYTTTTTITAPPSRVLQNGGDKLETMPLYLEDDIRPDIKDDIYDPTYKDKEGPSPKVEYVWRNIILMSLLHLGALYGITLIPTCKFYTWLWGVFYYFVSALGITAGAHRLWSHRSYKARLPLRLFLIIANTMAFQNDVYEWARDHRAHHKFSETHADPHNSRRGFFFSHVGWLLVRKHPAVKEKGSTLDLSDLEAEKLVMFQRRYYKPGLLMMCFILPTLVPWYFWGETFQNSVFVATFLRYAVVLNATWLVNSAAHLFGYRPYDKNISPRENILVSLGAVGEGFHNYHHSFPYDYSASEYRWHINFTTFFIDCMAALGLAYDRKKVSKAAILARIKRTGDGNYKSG
- METHOD: Growth inhibition of humanized yeast strain expressing SCD1 as sole desaturase
- Format: cell-based
- CONDITION_DETAILS: humanized yeast strain expressing SCD1
- Description: Strain oleΔ (yeast ole1 deletion mutant) was constructed by deleting OLE1 with NAT-MX6 in BY4741, amplifying the deletion cassette from the genomic DNA of the resulting strain with primers flanking the ORF by 1000 bp upstream and downstream, transforming the resulting deletion cassette into W303 pdr1Δ pdr3Δ, and plating transformants on YPD media containing G418 (200 μg/mL) and nourseothricin ([…]) with 0.01% TWEEN®-20 and 0.5 mM oleic and palmitoleic acids. […]
Write the answer as a number in %, unit excluded.

Asked: Quick check: SCD1 % Max Inhibition of COc1ccc(-c2noc(C3CCN(C(=O)[C@@H]4CC(=O)N(c5ccc(C)c(C)c5)C4)CC3)n2)cc1 (single isomer, unassigned) [Compound 63] ?
Given back: 62.04

Asked: Quick check: SCD1 % Max Inhibition of Cc1nn(C)c2cc(-c3noc(C4CCN(C(=O)CNC(=O)c5ccc(C#N)cc5)CC4)n3)ccc12 [Compound 267] ?
Given back: 58.58

Asked: Quick check: SCD1 % Max Inhibition of Cn1ncc2ccc(-c3noc(C4CCN(C(=O)c5ccnc(-c6ccccc6)c5)CC4)n3)cc21 [Compound 208] ?
Given back: 14.04

Asked: Quick check: SCD1 % Max Inhibition of O=C(NCC(=O)N1CCC(c2nc(-c3ccccc3F)no2)CC1)c1ccccc1 [Compound 43] ?
Given back: 76.52

Asked: Quick check: SCD1 % Max Inhibition of CCN(Cc1nc(-c2ccccc2)no1)C(=O)Cc1cccc2ccccc12 [Compound 156] ?
Given back: 72.58

Asked: Quick check: SCD1 % Max Inhibition of COc1cc(-c2noc(C3CCN(C(=O)CNC(=O)c4ccccc4)CC3)n2)ccc1OC(F)(F)F [Compound 253] ?
Given back: 62.07

Asked: Quick check: SCD1 % Max Inhibition of Cc1nn(C)c2cc(-c3noc(C4CN(C(=O)OC(C)(C)C)C4)n3)ccc12 [Compound 365] ?
Given back: 58.08

Asked: Quick check: SCD1 % Max Inhibition of O=C(c1ccccc1)N1CCC(c2nc(N3CC4(COC4)C3)no2)CC1 [Compound 334] ?
Given back: 49.3

Asked: Quick check: SCD1 % Max Inhibition of CCOC(=O)C(C)(C)n1ncc2ccc(-c3noc(C4CCN(C(=O)C5CC(=O)N(c6ccccc6)C5)CC4)n3)cc21 (stereo not drawn) [Compound 196] ?
Given back: 86.58

Asked: Quick check: SCD1 % Max Inhibition of Cc1nn(C)c2ccc(-c3noc(C4CCN(C(=O)c5ccc(C(C)C)cc5)CC4)n3)cc12 [Compound 297] ?
Given back: 5.7

Asked: Quick check: SCD1 % Max Inhibition of CC(C)(C)OC(=O)N1CCC(c2nc(-c3ccc4cnn(C5CC5)c4c3)no2)CC1 [Compound 360] ?
Given back: 64.03

Asked: Quick check: SCD1 % Max Inhibition of Cc1nn(C)c2cc(-c3noc(N4CCC(C(=O)N5CCO[C@H](c6ccccc6)C5)CC4)n3)ccc12 [Compound 211] ?
Given back: 39.99

Asked: Quick check: SCD1 % Max Inhibition of C[C@H]1CN(c2noc(C3CCN(C(=O)C4CC(=O)N(c5cccc(Cl)c5)C4)CC3)n2)C[C@H](C)O1 (stereo partly drawn) [Compound 324] ?
Given back: 74.9

Asked: Quick check: SCD1 % Max Inhibition of Cn1c(=O)n(C)c2cc(-c3noc(C4CCN(C(=O)C5CC(=O)N(c6ccccc6)C5)CC4)n3)ccc21 (stereo not drawn) [Compound 123] ?
Given back: 73.59

Asked: Quick check: SCD1 % Max Inhibition of Cc1noc2cc(-c3noc(C4CCN(C(=O)C5CC(=O)N(c6ccccc6)C5)CC4)n3)ccc12 (stereo not drawn) [Compound 136] ?
Given back: 34.33

Asked: Quick check: SCD1 % Max Inhibition of COc1cc(-c2noc(C3CCN(C(=O)CNC(=O)c4ccccc4)CC3)n2)ccc1OC1CC1 [Compound 249] ?
Given back: 80.12

Asked: Quick check: SCD1 % Max Inhibition of CCN1C(=O)COc2ccc(-c3noc(C4(c5ccc(OC)cc5)CC4)n3)cc21 [Compound 491] ?
Given back: 118.81

Asked: Quick check: SCD1 % Max Inhibition of COc1ccc(-c2noc(C3CCN(C(=O)CNc4nccc5ccccc45)CC3)n2)cc1OC [Compound 55] ?
Given back: 74.99

Asked: Quick check: SCD1 % Max Inhibition of COc1ccc(-c2noc(C3CCN(C(=O)c4cccc(C(C)C)c4)CC3)n2)cc1OC [Compound 167] ?
Given back: 6.11

Asked: Quick check: SCD1 % Max Inhibition of Cc1nn(C)c2cc(-c3noc(N4CCN(C(=O)c5cccc(F)c5)CC4)n3)ccc12 [Compound 270] ?
Given back: 82.42

Asked: Quick check: SCD1 % Max Inhibition of Cc1nn(C)c2cc(-c3noc(C4CCN(C(=O)C5CC(=O)N(c6ccc(F)cc6)C5)CC4)n3)ccc12 (stereo not drawn) [Compound 188] ?
Given back: 78.63

Asked: Quick check: SCD1 % Max Inhibition of Cc1nn(C)c2cc(-c3noc(C4CCN(C(=O)[C@@H]5CN(c6ccccc6)C(=O)O5)CC4)n3)ccc12 [Compound 149] ?
Given back: 69.75

Asked: Quick check: SCD1 % Max Inhibition of Cc1nn(C)c2cc(-c3noc(C4CCN(C(=O)C(CO)N5Cc6ccccc6C5=O)CC4)n3)ccc12 (stereo not drawn) [Compound 129] ?
Given back: 75.60

Asked: Quick check: SCD1 % Max Inhibition of CCOc1cnc(-c2noc(C3CCN(C(=O)C4CC(=O)N(c5ccccc5)C4)CC3)n2)cc1OC (stereo not drawn) [Compound 118] ?
Given back: 93.37

Asked: Quick check: SCD1 % Max Inhibition of Cn1c(=O)n(C)c2cc(-c3noc(C4CCN(C(=O)[C@@H](CO)NC(=O)c5ccccc5)CC4)n3)ccc21 [Compound 214] ?
Given back: 65.73

Asked: Quick check: SCD1 % Max Inhibition of Cc1c2cc(-c3noc(C4CCN(C(=O)c5ccc(C(C)C)cc5)CC4)n3)ccc2nn1C [Compound 318] ?
Given back: 77.6

Asked: Quick check: SCD1 % Max Inhibition of Cc1nn(C)c2cc(-c3noc(C4CCN(C(=O)CNC(=O)c5ccsc5)CC4)n3)ccc12 [Compound 222] ?
Given back: 40.42

Asked: Quick check: SCD1 % Max Inhibition of Cc1nn(C)c2cc(-c3noc(N4CCC(C(=O)N5CCO[C@@H](c6ccccc6)C5)CC4)n3)ccc12 [Compound 210] ?
Given back: 30.48

Asked: Quick check: SCD1 % Max Inhibition of CCN(Cc1nc(-c2ccc(OC)c(OC)c2)no1)C(=O)Cc1ccccc1 [Compound 492] ?
Given back: 83.92

Asked: Quick check: SCD1 % Max Inhibition of CC1(C)CC(=O)c2c(O)cc(OCC(=O)NCCc3nc(-c4ccccc4)no3)cc2O1 [Compound 487] ?
Given back: 83.76
